Values compiled from ChEMBL document CHEMBL1152633.

Biological target: GABA-A receptor; alpha-1/beta-2/gamma-2 (Homo sapiens, UniProt P14867+P18507+P47870)
Sequence (P14867 whole entry): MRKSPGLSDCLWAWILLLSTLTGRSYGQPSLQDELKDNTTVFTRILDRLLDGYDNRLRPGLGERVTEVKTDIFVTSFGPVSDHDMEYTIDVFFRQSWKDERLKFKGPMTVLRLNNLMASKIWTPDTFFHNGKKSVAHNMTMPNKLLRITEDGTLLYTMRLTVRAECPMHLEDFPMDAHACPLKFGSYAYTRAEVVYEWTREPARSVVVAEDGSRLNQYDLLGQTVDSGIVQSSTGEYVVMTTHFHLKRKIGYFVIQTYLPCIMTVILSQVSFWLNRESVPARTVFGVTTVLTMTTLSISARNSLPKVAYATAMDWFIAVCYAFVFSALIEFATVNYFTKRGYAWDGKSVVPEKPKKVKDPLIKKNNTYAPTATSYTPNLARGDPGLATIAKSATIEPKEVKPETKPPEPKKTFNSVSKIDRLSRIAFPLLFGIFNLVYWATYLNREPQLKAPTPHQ
Sequence (P47870 whole entry): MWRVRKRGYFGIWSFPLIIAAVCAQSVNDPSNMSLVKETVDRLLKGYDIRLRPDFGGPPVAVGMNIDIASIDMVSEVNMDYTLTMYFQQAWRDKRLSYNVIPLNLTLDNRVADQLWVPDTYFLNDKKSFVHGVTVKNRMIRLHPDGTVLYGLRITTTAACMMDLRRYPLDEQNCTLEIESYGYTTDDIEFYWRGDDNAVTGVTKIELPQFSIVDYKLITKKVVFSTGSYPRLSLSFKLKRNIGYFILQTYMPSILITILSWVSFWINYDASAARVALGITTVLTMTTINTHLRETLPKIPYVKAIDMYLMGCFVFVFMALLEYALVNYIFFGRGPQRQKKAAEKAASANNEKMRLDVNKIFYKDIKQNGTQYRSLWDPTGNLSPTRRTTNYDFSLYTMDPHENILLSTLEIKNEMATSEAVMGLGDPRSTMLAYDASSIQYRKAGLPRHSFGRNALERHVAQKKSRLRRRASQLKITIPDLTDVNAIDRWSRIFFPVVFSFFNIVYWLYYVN
Sequence (P18507 whole entry): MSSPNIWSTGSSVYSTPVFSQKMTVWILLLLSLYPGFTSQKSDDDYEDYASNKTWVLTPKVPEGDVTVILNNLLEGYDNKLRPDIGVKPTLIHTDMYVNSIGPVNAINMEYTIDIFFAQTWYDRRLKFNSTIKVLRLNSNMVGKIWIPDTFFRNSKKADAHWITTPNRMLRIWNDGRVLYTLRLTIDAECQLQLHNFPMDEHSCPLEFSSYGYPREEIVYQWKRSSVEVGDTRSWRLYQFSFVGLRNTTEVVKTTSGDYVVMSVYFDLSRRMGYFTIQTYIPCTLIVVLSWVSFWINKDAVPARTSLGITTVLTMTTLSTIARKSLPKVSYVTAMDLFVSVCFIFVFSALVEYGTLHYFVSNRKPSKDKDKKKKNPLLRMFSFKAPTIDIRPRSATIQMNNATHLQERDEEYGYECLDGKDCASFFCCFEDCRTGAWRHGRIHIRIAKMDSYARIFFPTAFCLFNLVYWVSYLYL
Assay: Modulatory activity at human GABAA alpha-1-beta-2-gamma-2L receptor expressed in Xenopus laevis oocytes assessed as potentiation of GABA EC5-induced currents by two-electrode voltage clamp assay
pEC50: −log10 of the molar value.
Reported property: pEC50

> print(dat)
                               smiles.entry                             system.tested  reported.property  assay.result
1  COc1ccc([C@@H]2Oc3ccccc3C[C@H]2OC(C)=O)cc1  GABA-A receptor; alpha-1/beta-2/gamma-2 (Homo sapiens, UniProt P14867+P18507+P47870)              pEC50          4.86
2  COc1ccc([C@@H]2Oc3ccccc3C[C@H]2OC(C)=O)cc1OC  GABA-A receptor; alpha-1/beta-2/gamma-2 (Homo sapiens, UniProt P14867+P18507+P47870)              pEC50          5.18
3  COc1ccc([C@@H]2Oc3cc(O)ccc3C[C@H]2OC(C)=O)cc1OC  GABA-A receptor; alpha-1/beta-2/gamma-2 (Homo sapiens, UniProt P14867+P18507+P47870)              pEC50          4.92
4  COc1ccc([C@@H]2Oc3ccc(OC)cc3C[C@H]2OC(C)=O)cc1  GABA-A receptor; alpha-1/beta-2/gamma-2 (Homo sapiens, UniProt P14867+P18507+P47870)              pEC50          4.83

----------
Biological target: GABA-A receptor; alpha-1/beta-2/gamma-2 (Homo sapiens) (UniProt P14867+P47870+P18507)
Test: Modulatory activity at human GABAA alpha-1-beta-2-gamma-2L receptor expressed in Xenopus laevis oocytes assessed as potentiation of GABA EC5-induced currents at 30 uM by two-electrode voltage clamp assay
Format: cell-based
Conditions: Oocyte
Reported property: Activity

> print(dat)
                                smiles.entry  reported.property  assay.result
 1  COc1cc([C@@H]2Oc3ccccc3C[C@H]2OC(C)=O)cc(Br)c1OC           Activity         > 50%
 2  COc1ccc([C@@H]2Oc3ccccc3C[C@H]2OC(C)=O)cc1OC           Activity         > 50%
 3  COc1ccc([C@@H]2Oc3ccc(OC)cc3C[C@H]2OC(C)=O)cc1           Activity         > 50%
 4  CC(=O)O[C@H]1Cc2ccccc2O[C@@H]1c1ccc(O)cc1           Activity         < 50%
 5  CC(=O)O[C@H]1Cc2ccccc2O[C@H]1c1ccc(OCc2ccccc2)cc1           Activity         < 50%
 6  CC(=O)O[C@@H]1Cc2ccccc2O[C@H]1c1ccc2c(c1)OCO2           Activity         > 50%
 7  COc1ccc([C@@H]2Oc3ccc(C)cc3C[C@H]2OC(C)=O)cc1OC           Activity         > 50%
 8  COc1ccc([C@@H]2Oc3cc(O)ccc3C[C@H]2OC(C)=O)cc1           Activity         > 50%
 9  COc1ccc([C@H]2Oc3ccc(OC)cc3C[C@H]2OC(C)=O)cc1           Activity         < 50%
10  COc1ccc([C@H]2Oc3cc(O)ccc3C[C@@H]2OC(C)=O)cc1OC           Activity         < 50%
11  COc1ccc([C@H]2Oc3cc(OCc4ccccc4)ccc3C[C@@H]2OC(C)=O)cc1OC           Activity         < 50%
12  COc1ccc([C@H]2Oc3ccccc3C[C@@H]2OC(C)=O)cc1           Activity         > 50%
13  COc1ccc([C@@H]2Oc3cc(O)ccc3C[C@H]2OC(C)=O)cc1OC           Activity         > 50%
14  CC(=O)O[C@H]1Cc2ccccc2O[C@H]1c1ccc(O)cc1           Activity         < 50%
15  COc1ccc([C@H]2Oc3ccccc3C[C@@H]2OC(C)=O)cc1OC           Activity         > 50%
16  COc1ccc([C@@H]2Oc3ccccc3C[C@H]2OC(C)=O)cc1           Activity          700%
17  COc1ccc([C@@H]2Oc3cc(OCc4ccccc4)ccc3C[C@H]2OC(C)=O)cc1OC           Activity         < 50%
18  COc1ccc([C@@H]2Oc3cc(OCc4ccccc4)ccc3C[C@H]2OC(C)=O)cc1           Activity         < 50%
19  COc1ccc([C@H]2Oc3ccccc3C[C@H]2OC(C)=O)cc1           Activity         < 50%
20  COc1ccc([C@@H]2Oc3ccccc3C[C@@H]2OC(C)=O)cc1           Activity         < 50%
21  CC(=O)O[C@H]1Cc2ccccc2O[C@@H]1c1ccc2c(c1)OCO2           Activity         > 50%
22  COc1ccc([C@H]2Oc3cc(OCc4ccccc4)ccc3C[C@H]2OC(C)=O)cc1           Activity         < 50%

----------
Target: GABA-A receptor; alpha-1/beta-2/gamma-2 (Homo sapiens) (UniProt P14867+P47870+P18507)
Assay: Modulatory activity at human GABAA alpha-1-beta-2-gamma-2L receptor expressed in Xenopus laevis oocytes assessed as potentiation of GABA EC5-induced currents at 30 uM by two-electrode voltage clamp assay
Assay type: cell-based
Conditions: Oocyte
Here, each record is paired with measured Activity data.
Reported property: Activity

> print(dat)
                               smiles.entry  reported.property  assay.result
1  COc1ccc([C@@H]2Oc3cc(O)ccc3C[C@@H]2OC(C)=O)cc1           Activity         < 50%
2      COc1ccc([C@@H]2Oc3ccccc3C[C@H]2O)cc1           Activity         < 50%
3  COc1ccc([C@@H]2Oc3ccccc3C[C@@H]2OC(C)=O)cc1OC           Activity         < 50%
4  COc1ccc([C@H]2Oc3ccc(C)cc3C[C@@H]2OC(C)=O)cc1OC           Activity         < 50%
5  CC(=O)O[C@H]1Cc2ccccc2O[C@@H]1c1ccc(OCc2ccccc2)cc1           Activity         < 50%
6       COc1ccc([C@H]2Oc3ccccc3C[C@H]2O)cc1           Activity         < 50%
